Quick list: fraction unbound per entry.
ASSAY REMARKS: Percentage unbound in mouse plasma
Format: ADME, cell-free
Give the value as a plain number.

Below: 2 molecules and their reported fraction unbound.
CC(C)c1ccc(S(C)(=O)=O)cc1C#Cc1cc(Cl)ccc1OCC(=O)O : 0.013
Cc1ccc(S(=O)(=O)N(C)C(C)C)cc1C#Cc1cc(Cl)ccc1OCC(=O)O : 0.005

Query block: Give the value of fraction unbound reported for the following: COCCN(C)S(=O)(=O)c1ccc(C)c(C#Cc2cc(Cl)ccc2OCC(=O)O)c1
Result block: 0.007

###

TARGET UNDER TEST: Prostaglandin D2 receptor 2 (Homo sapiens)
Sequence (Q9Y5Y4 whole entry): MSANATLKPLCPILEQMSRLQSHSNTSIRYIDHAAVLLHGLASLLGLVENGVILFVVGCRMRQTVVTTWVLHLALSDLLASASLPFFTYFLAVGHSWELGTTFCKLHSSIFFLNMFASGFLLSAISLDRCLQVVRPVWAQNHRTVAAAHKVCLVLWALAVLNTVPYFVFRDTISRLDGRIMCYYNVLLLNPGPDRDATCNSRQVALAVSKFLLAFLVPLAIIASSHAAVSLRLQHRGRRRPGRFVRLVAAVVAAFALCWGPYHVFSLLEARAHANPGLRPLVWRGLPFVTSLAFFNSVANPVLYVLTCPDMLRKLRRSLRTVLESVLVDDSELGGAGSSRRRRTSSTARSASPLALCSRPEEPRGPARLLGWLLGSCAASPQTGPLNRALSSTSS
ASSAY REMARKS: Displacement of [3H]PGD2 from human CRTH2 expressed in chinese hamster CHO cells by liquid scintillation counting
PROPERTY NAME: Ki (nM)
# output: bare number, implied unit nM

Cc1ccc(S(=O)(=O)N2CCCCC2)cc1C#Cc1cc(Cl)ccc1OCC(=O)O : 5
CN(C)S(=O)(=O)c1cncc(C#Cc2cc(Cl)ccc2OCC(=O)O)c1 : 37
O=C(O)COc1ccc(C(F)(F)F)cc1C#Cc1ccccc1Cl : 12
Cc1ccc(S(=O)(=O)NC(C)C)cc1C#Cc1cc(Cl)ccc1OCC(=O)O : 3.4
CC(C)S(=O)(=O)c1cc(C#Cc2cc(Cl)ccc2OCC(=O)O)ccc1C(=O)N(C)C : 65
CCCS(=O)(=O)c1ccc(C)c(C#Cc2cc(Cl)ccc2OC(CC)C(=O)O)c1 (centres undefined) : 30

Query block: Return the recorded Ki value; entry: COCc1ccc(C#Cc2cc(Cl)ccc2OCC(=O)O)c(F)c1
Result block: 22

Query block: Return value of Ki for input CS(=O)(=O)c1cc(C#Cc2cc(Cl)ccc2OCC(=O)O)ccc1-c1ccc(C(F)(F)F)cc1 , no commentary.
Result block: 43

Query block: For the compound COc1ccc(-c2ccc(C#Cc3cc(Cl)ccc3OCC(=O)O)cc2S(C)(=O)=O)cc1 , give its reported Ki.
Result block: 7
